These data points were gathered from ChEMBL document CHEMBL1125151.

# MEASURED TARGET: UniProt P06186
# TEST METHOD NOTES: Binding to rabbit uterine progesterone receptor compared to progesterone
Rule for this label: Criterion met means Competition factor is less than 30; Criterion not met means Competition factor is at least 30.

CC(C)OC(=O)[C@@H]1CC2=CC(=O)C=CC2(C)C2CCC3(C)C(C21)[C@@H]1C[C@@H]1C31CCC(=O)O1 (stereo not given in full) ... Criterion not met
CCOC(=O)[C@@H]1CC2=CC(=O)[C@@H]3C[C@@H]3C2(C)C2CCC3(C)C(C21)[C@@H]1C[C@@H]1C31CCC(=O)O1 (stereo not given in full) ... Criterion not met
CC(C)OC(=O)[C@@H]1CC2=CC(=O)[C@@H]3C[C@@H]3C2(C)C2CCC3(C)C(C21)[C@@H]1C[C@@H]1C31CCC(=O)O1 (stereo not given in full) ... Criterion met
COC(=O)[C@@H]1CC2=CC(=O)CCC2(C)C2CCC3(C)C(CCC34CCC(=O)O4)C21 (stereo not given in full) ... Criterion not met

Switching to the query record.
Q) Take the compound COC(=O)[C@@H]1CC2=CC(=O)CCC2(C)C2CCC3(C)C(C21)[C@@H]1C[C@@H]1C31CCC(=O)O1 (stereo not given in full) and say whether its Competition factor is less than 30.
A) Criterion met

###

# MEASURED TARGET: Progesterone receptor (Oryctolagus cuniculus) (UniProt P06186)
# Sequence (whole entry): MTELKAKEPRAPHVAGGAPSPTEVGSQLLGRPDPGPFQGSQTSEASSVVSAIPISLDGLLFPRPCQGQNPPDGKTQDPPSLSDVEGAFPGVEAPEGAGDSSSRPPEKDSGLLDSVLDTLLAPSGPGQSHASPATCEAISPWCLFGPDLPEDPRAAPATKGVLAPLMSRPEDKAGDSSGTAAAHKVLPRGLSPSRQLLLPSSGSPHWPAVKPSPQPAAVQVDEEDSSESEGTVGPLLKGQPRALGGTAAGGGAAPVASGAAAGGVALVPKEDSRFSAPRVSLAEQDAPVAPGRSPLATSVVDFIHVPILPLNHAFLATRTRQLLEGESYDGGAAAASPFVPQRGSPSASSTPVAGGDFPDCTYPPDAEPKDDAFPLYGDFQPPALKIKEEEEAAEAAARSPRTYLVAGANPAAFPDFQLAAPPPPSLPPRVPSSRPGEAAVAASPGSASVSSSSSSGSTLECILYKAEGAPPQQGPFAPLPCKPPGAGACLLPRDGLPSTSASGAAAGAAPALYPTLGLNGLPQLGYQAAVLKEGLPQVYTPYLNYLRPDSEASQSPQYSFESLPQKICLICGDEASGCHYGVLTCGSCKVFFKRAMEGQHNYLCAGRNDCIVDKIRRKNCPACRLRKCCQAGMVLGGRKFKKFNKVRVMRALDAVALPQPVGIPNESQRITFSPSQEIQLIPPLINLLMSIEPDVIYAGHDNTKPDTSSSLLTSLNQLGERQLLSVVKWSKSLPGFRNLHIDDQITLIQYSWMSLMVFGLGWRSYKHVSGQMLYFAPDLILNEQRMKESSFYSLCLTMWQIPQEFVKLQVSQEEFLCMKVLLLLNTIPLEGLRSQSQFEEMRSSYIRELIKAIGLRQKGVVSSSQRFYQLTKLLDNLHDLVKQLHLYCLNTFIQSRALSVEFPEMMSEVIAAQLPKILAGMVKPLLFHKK
# TEST METHOD NOTES: Binding to rabbit uterine progesterone receptor compared to progesterone
Tick Yes if Competition factor is 30 or greater. Tick No if Competition factor is less than 30.

CCOC(=O)[C@@H]1CC2=CC(=O)CCC2(C)C2CCC3(C)C(C21)[C@@H]1C[C@@H]1C31CCC(=O)O1 (some centres not stated) ... Yes

Q) Check the entry COC(=O)[C@@H]1CC2=CC(=O)[C@@H]3C[C@@H]3C2(C)C2CCC3(C)C(C21)[C@@H]1C[C@@H]1C31CCC(=O)O1 (some centres not stated) : does Competition factor equal or exceed 30?
A) Yes

Q) Please answer likewise for CC(C)OC(=O)[C@@H]1CC2=CC(=O)CCC2(C)C2CCC3(C)C(C21)[C@@H]1C[C@@H]1C31CCC(=O)O1 (some centres not stated)
A) No

Q) Please answer likewise for CCOC(=O)[C@@H]1CC2=CC(=O)C=CC2(C)C2CCC3(C)C(C21)[C@@H]1C[C@@H]1C31CCC(=O)O1 (some centres not stated)
A) Yes

Q) Please answer likewise for COC(=O)[C@@H]1CC2=CC(=O)CCC2(C)C2CCC3(C)C(C21)[C@H]1C[C@H]1C31CCC(=O)O1 (some centres not stated)
A) No

Q) Please answer likewise for COC(=O)[C@@H]1CC2=CC(=O)[C@@H]3C[C@@H]3C2(C)C2CCC3(C)C(C21)[C@H]1C[C@H]1C31CCC(=O)O1 (some centres not stated)
A) Yes

Q) Please answer likewise for CCCOC(=O)[C@@H]1CC2=CC(=O)[C@@H]3C[C@@H]3C2(C)C2CCC3(C)C(C21)[C@@H]1C[C@@H]1C31CCC(=O)O1 (some centres not stated)
A) No

###

# MEASURED TARGET: Mineralocorticoid receptor (Rattus norvegicus)
# TEST METHOD NOTES: Anti-aldosterone effect on the urinary Na/K ratio in Wistar rats compared to spironolactone
# Assay type: functional
# MEASUREMENT SETUP: Urine
For each of the compounds below, state its Relative potency.
Answers are plain numbers.

CC(C)OC(=O)[C@@H]1CC2=CC(=O)[C@@H]3C[C@@H]3C2(C)C2CCC3(C)C(C21)[C@@H]1C[C@@H]1C31CCC(=O)O1 (stereo partly drawn) ... 140
COC(=O)[C@@H]1CC2=CC(=O)CCC2(C)C2CCC3(C)C(C21)[C@H]1C[C@H]1C31CCC(=O)O1 (stereo partly drawn) ... 50
CCCOC(=O)[C@@H]1CC2=CC(=O)[C@@H]3C[C@@H]3C2(C)C2CCC3(C)C(C21)[C@@H]1C[C@@H]1C31CCC(=O)O1 (stereo partly drawn) ... 39
CCOC(=O)[C@@H]1CC2=CC(=O)[C@@H]3C[C@@H]3C2(C)C2CCC3(C)C(C21)[C@@H]1C[C@@H]1C31CCC(=O)O1 (stereo partly drawn) ... 187
COC(=O)[C@@H]1CC2=CC(=O)[C@@H]3C[C@@H]3C2(C)C2CCC3(C)C(C21)[C@H]1C[C@H]1C31CCC(=O)O1 (stereo partly drawn) ... 140

Look at each compound and report its Relative potency.
1. COC(=O)[C@@H]1CC2=CC(=O)[C@@H]3C[C@@H]3C2(C)C2CCC3(C)C(C21)[C@@H]1C[C@@H]1C31CCC(=O)O1 (stereo partly drawn)
2. COC(=O)[C@@H]1CC2=CC(=O)CCC2(C)C2CCC3(C)C(CCC34CCC(=O)O4)C21 (stereo partly drawn)
3. COC(=O)[C@@H]1CC2=CC(=O)CCC2(C)C2CCC3(C)C(C21)[C@@H]1C[C@@H]1C31CCC(=O)O1 (stereo partly drawn)

A)
1. 140
2. 104
3. 217

###

# MEASURED TARGET: Androgen receptor (Rattus norvegicus) (UniProt P15207)
# Sequence (P15207 whole entry S389L): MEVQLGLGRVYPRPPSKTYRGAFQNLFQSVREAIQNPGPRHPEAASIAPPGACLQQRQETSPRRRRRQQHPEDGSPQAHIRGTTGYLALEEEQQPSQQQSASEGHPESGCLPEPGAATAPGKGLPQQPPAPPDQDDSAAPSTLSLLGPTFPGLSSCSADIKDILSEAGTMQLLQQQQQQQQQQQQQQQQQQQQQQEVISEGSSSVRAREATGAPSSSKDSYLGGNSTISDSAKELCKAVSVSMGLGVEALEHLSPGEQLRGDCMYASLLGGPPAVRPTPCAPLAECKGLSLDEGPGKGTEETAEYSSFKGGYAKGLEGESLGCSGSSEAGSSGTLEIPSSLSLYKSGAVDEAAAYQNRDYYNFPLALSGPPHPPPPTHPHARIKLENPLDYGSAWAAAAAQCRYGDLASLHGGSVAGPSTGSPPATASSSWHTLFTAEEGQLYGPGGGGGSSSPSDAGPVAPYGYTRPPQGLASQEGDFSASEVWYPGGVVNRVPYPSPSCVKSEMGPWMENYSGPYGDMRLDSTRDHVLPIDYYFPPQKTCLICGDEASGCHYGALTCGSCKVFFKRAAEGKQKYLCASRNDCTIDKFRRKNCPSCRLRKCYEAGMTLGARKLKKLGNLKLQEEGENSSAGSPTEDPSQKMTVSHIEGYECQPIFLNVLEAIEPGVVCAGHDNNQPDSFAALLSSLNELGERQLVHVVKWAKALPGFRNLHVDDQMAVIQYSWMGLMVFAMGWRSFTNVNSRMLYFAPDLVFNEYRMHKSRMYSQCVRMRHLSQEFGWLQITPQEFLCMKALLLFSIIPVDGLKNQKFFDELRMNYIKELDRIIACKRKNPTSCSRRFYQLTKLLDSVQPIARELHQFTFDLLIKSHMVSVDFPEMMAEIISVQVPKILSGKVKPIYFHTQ
# TEST METHOD NOTES: Binding to rat prostate Androgen receptor compared to dihydrotestosterone
# MEASUREMENT SETUP: Prostate gland
Tick met if Competition factor is 70 or greater. Tick not met if Competition factor is less than 70.

The following molecules have reported results that may help.
COC(=O)[C@@H]1CC2=CC(=O)CCC2(C)C2CCC3(C)C(C21)[C@H]1C[C@H]1C31CCC(=O)O1 (some centres not stated) ... met
CC(C)OC(=O)[C@@H]1CC2=CC(=O)CCC2(C)C2CCC3(C)C(C21)[C@@H]1C[C@@H]1C31CCC(=O)O1 (some centres not stated) ... not met

Q) Check the entry CC(C)OC(=O)[C@@H]1CC2=CC(=O)C=CC2(C)C2CCC3(C)C(C21)[C@@H]1C[C@@H]1C31CCC(=O)O1 (some centres not stated) : does Competition factor equal or exceed 70?
A) met

Q) Please answer likewise for COC(=O)[C@@H]1CC2=CC(=O)[C@@H]3C[C@@H]3C2(C)C2CCC3(C)C(C21)[C@H]1C[C@H]1C31CCC(=O)O1 (some centres not stated)
A) not met

Q) Please answer likewise for CCOC(=O)[C@@H]1CC2=CC(=O)CCC2(C)C2CCC3(C)C(C21)[C@@H]1C[C@@H]1C31CCC(=O)O1 (some centres not stated)
A) met

Q) Please answer likewise for COC(=O)[C@@H]1CC2=CC(=O)[C@@H]3C[C@@H]3C2(C)C2CCC3(C)C(C21)[C@@H]1C[C@@H]1C31CCC(=O)O1 (some centres not stated)
A) not met

Q) Please answer likewise for CC(C)OC(=O)[C@@H]1CC2=CC(=O)[C@@H]3C[C@@H]3C2(C)C2CCC3(C)C(C21)[C@@H]1C[C@@H]1C31CCC(=O)O1 (some centres not stated)
A) not met
